target: HLA-A*69:01; experiment: IEDB peptide-MHC binding, purified MHC/direct/fluorescence; filed as Kd, often an IC50 or EC50 that approximates it; bounds were set here for any values at or beyond the usual limits of such assays; conditions: source organism: Camelpox virus CMS
observation type: pKd
Please treat pKd as minus the base-10 logarithm of the molar concentration.

Asked: // fetch pKd given entry HMIDKLFYV
Given back: 8.70

###

molecular target: HLA-A*30:01; test: IEDB peptide-MHC binding, purified MHC/direct/fluorescence; filed as Kd, often an IC50 or EC50 that approximates it; bounds were set here for any values at or beyond the usual limits of such assays; conditions: source organism: Giardia lamblia ATCC 50803
Quick reference for pKd among some sequences
Please treat pKd as minus the base-10 logarithm of the molar concentration.

Asked: // fetch pKd given entry RTRFFCIPK
Given back: 8.86

Asked: // fetch pKd given entry AIPYFYKGK
Given back: 4.90

Asked: // fetch pKd given entry IRNLVKRYK
Given back: 7.29

Value source: the Immune Epitope Database (IEDB)
